# maps each entry to its Ki
- target-or-system: MCH-2 (Homo sapiens, UniProt P55212)
- assay-remarks: Ki determination, ICE/ced-3 family protease fluorescence assay (MCH-2)
- Format: biochemical
- measurement-context: continuous assay sixty minutes, reaction initiated by adding enzyme to substrate-inhibitor mixture; Ki by simulating AMC formation (Equation 1)
Peptide text beside a SMILES is read from it. * marks the point of attachment. Cbz = O=C(OCc1ccccc1)*; CH2F = FC*
Your answer should be a plain number; it is taken to be in µM.

C[C@H](NC(=O)C(=O)Nc1ccccc1C(C)(C)C)C(=O)N[C@@H](CC(=O)NS(C)(=O)=O)C(=O)COc1c(F)c(F)cc(F)c1F [compound 1]	0.681

Now let's try a different one.
Exam item: For CC(NC(=O)C(NC(=O)OCc1ccccc1)C(C)C)C(=O)NC(CC(=O)O)C(=O)CF (stereo not drawn) [reference, Cbz-ValAlaAsp-CH2F] (Cbz-Val-Ala-Asp-CH2F; configuration not given here) , write its Ki.
Marked response: 0.594

Where these numbers come from: patent US6515173B1
